What Estimated Phase Region: Solid/gum/paste was measured for each of the following?
assay-notes: Surfactant phase behavior study (cross-polarized microscopy)
Format: physicochemical
test-conditions: room temperature (20-22° C.)

### Prompt Return reported Estimated Phase Region: Solid/gum/paste; argument: CCCCCCCCCCOS(=O)(=O)[O-].[Na+] [sat. analog of A10-3, reference compound]
### Response 59-100 % actives

### Prompt Return reported Estimated Phase Region: Solid/gum/paste; argument: CCCCCCCCCCCCOCCOCCOCCOS(=O)(=O)[O-].[Na+] [sat. analog of A12-9, reference compound]
### Response 78-100 % actives

### Prompt Return reported Estimated Phase Region: Solid/gum/paste; argument: CCCCCCCCCCOS(=O)(=O)O.N [sat. analog of A10-2, reference compound]
### Response 80-100 % actives

### Prompt Return reported Estimated Phase Region: Solid/gum/paste; argument: `C=CCCCCCCCCOS(=O)(=O)O.N`
### Response 80-100 % actives

### Prompt Return reported Estimated Phase Region: Solid/gum/paste; argument: `C=CCCCCCCCCOS(=O)(=O)[O-].[Na+]`
### Response 81-100 % actives

### Prompt Return reported Estimated Phase Region: Solid/gum/paste; argument: CCCCCCCCCCCCOS(=O)(=O)O.N [sat. analog of A12-2, reference compound]
### Response 74-100 % actives

### Prompt Return reported Estimated Phase Region: Solid/gum/paste; argument: CCCCCCCCCCCCOS(=O)(=O)[O-].[Na+] [sat. analog of A12-3, reference compound]
### Response 31-100 % actives
